Tested on: OVCAR3 ovarian cancer cells
assay details: WST-1 proliferation/survival assay, OVCAR3
Format: cell-based
test settings: Homo sapiens, OVCAR-3, read-out: Gemcitabine IC50
parameter measured: IC50 (µM)
Respond with the bare value in µM.

Input line: Lab request: please report IC50 under test system OVCAR3 ovarian cancer cells for Nc1ccn([C@@H]2O[C@H](CO)[C@@H](O)C2(F)F)c(=O)n1
Output line: 50

---

System: MDAMB 231 breast cancer cells
assay details: WST-1 proliferation/survival assay, MDAMB 231
Format: cell-based
test settings: Homo sapiens, MDA-MB-231, read-out: Gemcitabine IC50
parameter measured: IC50 (µM)
Respond with the bare value in µM.

Input line: Consider the compound Nc1ccn([C@@H]2O[C@H](CO)[C@@H](O)C2(F)F)c(=O)n1 and give its measured IC50.
Output line: 100
